Test system: MCF10A
Test: one-nucleolus phenotype percent effect (relative to siNT 0% and siNOL11 100%); higher = more cells with one nucleolus (ribosome biogenesis inhibition)
Conditions: 20 nM; 72 h
The following ranges of one-nucleolus phenotype percent effect define the classes used here: zone 1 = under -10%, zone 2 = from -10% up to 40%, zone 3 = 40% and over

Ask: Which one-nucleolus phenotype percent effect category applies to UUCCCAGCCAACGCACCA [hsa-miR-7977] here?
Result: zone 1

Ask: Record GGUCCAGAGGGGAGAUAGGUUC [hsa-miR-198] — which class?
Result: zone 2

Further cases:
Ask: Input CACUUAGCAGGUUGUAUUAUAU [hsa-miR-374c-3p] ; output its category
Result: zone 2

Ask: Band assignment needed for ACUGGGCUUGGAGUCAGAAG [hsa-miR-378g] please.
Result: zone 3

Ask: For the record CUCUCUGGCCGUCUACCUUCCA [hsa-miR-3191-5p] , report the class its one-nucleolus phenotype percent effect corresponds to.
Result: zone 3

Ask: Bin this entry: UCUAUACAGACCCUGGCUUUUC [hsa-miR-1284]
Result: zone 1

Ask: The entry to classify is CAGCCCGGAUCCCAGCCCACUU [hsa-miR-3940-3p] ; which class holds it?
Result: zone 2

Ask: Each sequence maps to one class by one-nucleolus phenotype percent effect. Which class for GAAAGUAAUUGCUGUUUUUGCC [hsa-miR-548aq-5p] ?
Result: zone 1

* * *

Test system: MCF10A
Assay: percent viability (nuclei count relative to siNT); higher = more viable cells
Conditions: 20 nM; 72 h
Reported percent viability by item:
Return type: number; implicit unit %.

Observe how each entry below is paired with its result.
Ask: Need percent viability of AAAAGCUGGGCUGAGAGGCG [hsa-miR-4429] , thanks.
Result: 38.6

Ask: Value lookup for percent viability; key = UCUGCCAUAGGAAGCUUGGAGUGG [hsa-miR-6817-5p]
Result: 65.4

Ask: So what does the record say about percent viability for UAGGAGGGAAUAGUAAAAGCAG [hsa-miR-4779] ?
Result: 15

Note: attention shifts to another entry.
Ask: Tell me the measured percent viability of UUUUGCAAUAUGUUCCUGAAUA [hsa-miR-450b-5p] , please.
Result: 108

* * *

Below, each entry is listed with its recorded one-nucleolus phenotype percent effect.
System: MCF10A
Assay: one-nucleolus phenotype percent effect (relative to siNT 0% and siNOL11 100%); higher = more cells with one nucleolus (ribosome biogenesis inhibition)
Conditions: 20 nM; 72 h
Your answer is read as %, so omit the unit and give the number.

The following sequences have reported results that may help.
Ask: If you can, please state the reported one-nucleolus phenotype percent effect value of UGAGGUGGUAGGAUGUAGA [hsa-miR-6134] .
Result: 40.7

Ask: Param item = CAUGCCUUGAGUGUAGGACCGU [hsa-miR-532-5p] ; retrieve measured one-nucleolus phenotype percent effect.
Result: 19.3

Ask: Given ACACCCUCUUUCCCUACCGCC [hsa-miR-6865-3p] , state its recorded one-nucleolus phenotype percent effect.
Result: -26

Ask: Which one-nucleolus phenotype percent effect reading was recorded for the sequence AUGAGACUCAUGUAAAACAUCUU [hsa-miR-3672] ?
Result: 34.3

Ask: For AGCAGGGCUGGGGAUUGCA [hsa-miR-6132] , what is its reported one-nucleolus phenotype percent effect?
Result: 57.1

***
Ask: Param item = ACCCCCGGGCAAAGACCUGCAGAU [hsa-miR-6840-5p] ; retrieve measured one-nucleolus phenotype percent effect.
Result: 5.12

Ask: Would you kindly share the measured one-nucleolus phenotype percent effect for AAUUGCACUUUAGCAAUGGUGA [hsa-miR-367-3p] ?
Result: -12.8

Ask: Using the record for GGGGCUGGGGCCGGGGCCGAGC [hsa-miR-762] , report its one-nucleolus phenotype percent effect.
Result: -31.4

Ask: Fill in: one-nucleolus phenotype percent effect of UAUACAAGGGCAAGCUCUCUGU [hsa-miR-381-3p] is ___
Result: -13.7

Ask: Fill in: one-nucleolus phenotype percent effect of CAUGACGUCACAGAGGCUUCGC [hsa-miR-4757-3p] is ___
Result: -14.4

Ask: Any idea what one-nucleolus phenotype percent effect was measured for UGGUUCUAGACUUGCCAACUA [hsa-miR-182-3p] ?
Result: 97.2

Ask: What value of measured one-nucleolus phenotype percent effect is listed for UGCCUCUUUUCCACGGCCUCAG [hsa-miR-6781-3p] ?
Result: -1.18

* * *

System: MCF10A
Test: 5+ nucleoli phenotype percent effect (relative to siNT 0% and siKIF11 100%); higher = more cells with five or more nucleoli
Conditions: 20 nM; 72 h
result_type: 5+ nucleoli phenotype percent effect (%)
Write the number in % without appending the unit.

Answered cases to consult:
Ask: For the record GCCCCGGGCAGUGUGAUCAUC [hsa-miR-5587-3p] , what value of 5+ nucleoli phenotype percent effect is listed for MCF10A?
Result: 18.8

Ask: // fetch MCF10A 5+ nucleoli phenotype percent effect for CGAAAACAGCAAUUACCUUUGC [hsa-miR-570-3p]
Result: 34.2

Ask: What measured 5+ nucleoli phenotype percent effect is associated with CUCCAGAGGGAAGUACUUUCU [hsa-miR-520a-5p] on MCF10A?
Result: -28.3

---
Ask: Identify the measured 5+ nucleoli phenotype percent effect of UCAAAUGCAGAUCCUGACUUC [hsa-miR-7853-5p] for MCF10A.
Result: 14

Ask: Request body: readout 5+ nucleoli phenotype percent effect, system MCF10A, query AGAGAUGCCGCCUUGCUCCUU [hsa-miR-4708-5p] . Return the value.
Result: -25.3

* * *

Test system: MCF10A
Experiment: one-nucleolus phenotype percent effect (relative to siNT 0% and siNOL11 100%); higher = more cells with one nucleolus (ribosome biogenesis inhibition)
Conditions: 20 nM; 72 h
result_type: one-nucleolus phenotype percent effect (%)
The reply should contain only the number, in %.

Example cases with answers are listed next.
Ask: Item: CCUCACCACCCCUUCUGCCUGCA [hsa-miR-6511b-3p] Test system: MCF10A Read-out: one-nucleolus phenotype percent effect Value: ?
Result: -22.7

Ask: Request: one-nucleolus phenotype percent effect, test system MCF10A, entry UUGCAGCUGCGGUUGUAAGGU [hsa-miR-5047]
Result: 11.1

Ask: Lab note: need one-nucleolus phenotype percent effect with MCF10A for entry CCGGCAUGUCCAGGGCA [hsa-miR-4304] , please look it up.
Result: 14.3

Ask: Find one-nucleolus phenotype percent effect (MCF10A) for the entry UUUGGGACUGAUCUUGAUGUCU [hsa-miR-3913-5p]
Result: -47.3

Ask: Tell me reported one-nucleolus phenotype percent effect for CUACCCUCGGUCUGCUUACCACA [hsa-miR-7848-3p] , tested with MCF10A.
Result: 25.5

Continuing:
Ask: # returns recorded one-nucleolus phenotype percent effect (system: MCF10A) for AAAGCGCUUCCCUUCAGAGUG [hsa-miR-518e-3p]
Result: 9.91

Ask: Request: one-nucleolus phenotype percent effect, test system MCF10A, entry GAAUCGGAAAGGAGGCGCCG [hsa-miR-3610]
Result: -7.32

* * *

Test system: MCF10A
Test: 5+ nucleoli phenotype percent effect (relative to siNT 0% and siKIF11 100%); higher = more cells with five or more nucleoli
Conditions: 20 nM; 72 h
The sequences listed here are annotated with their 5+ nucleoli phenotype percent effect.
Return type: number; implicit unit %.

Below: 2 sequences and their reported 5+ nucleoli phenotype percent effect.
Ask: Looking for the measured 5+ nucleoli phenotype percent effect of UGGGCGAGGGCGGCUGAGCGGC [hsa-miR-6729-5p] , can you help?
Result: -3.58

Ask: Endpoint output: 5+ nucleoli phenotype percent effect of CAAAAGCAAUCGCGGUUUUUGC [hsa-miR-548e-5p] . Value?
Result: 44

Continue with the next sequence.
Ask: Quick check: 5+ nucleoli phenotype percent effect of AACUGUUUGCAGAGGAAACUGA [hsa-miR-452-5p] ?
Result: 28.4

* * *

Test system: MCF10A
Experiment: one-nucleolus phenotype percent effect (relative to siNT 0% and siNOL11 100%); higher = more cells with one nucleolus (ribosome biogenesis inhibition)
Conditions: 20 nM; 72 h
result_type: one-nucleolus phenotype percent effect (%)
# number only, unit % dropped from output

Ask: Request: one-nucleolus phenotype percent effect, test system MCF10A, entry CCAGUCCUGUGCCUGCCGCCU [hsa-miR-1910]
Result: 3.9

Ask: Recorded one-nucleolus phenotype percent effect for UUUAGAGACGGGGUCUUGCUCU [hsa-miR-1303] with MCF10A, please?
Result: -10.2

Ask: // lookup one-nucleolus phenotype percent effect | system=MCF10A | key= AAGGAGCUCACAGUCUAUUGAG [hsa-miR-28-5p]
Result: 69.4

Ask: Kindly state the measured one-nucleolus phenotype percent effect obtained for UGGGCUAAGGGAGAUGAUUGGGUA [hsa-miR-664b-5p] with MCF10A.
Result: 5.55

Others:
Ask: Recorded one-nucleolus phenotype percent effect for UUUCCUACCCUACCUGAAGACU [hsa-miR-3685] with MCF10A, please?
Result: 16.6

Ask: Please tell me: one-nucleolus phenotype percent effect of UAUGCAUUGUAUUUUUAGGUCC [hsa-miR-586] , system MCF10A?
Result: -12.9
